system: human ovarian carcinoma A2780 cells; experiment: MTT in vitro cytotoxicity assay, A2780; type: cell-based; details: triplicate, tested up to 50 μM, read-out: In vitro cytotoxicity IC50 ± S.D., A2780
Reported IC50 values follow for various compounds

Reference set (2 entries):
{"compound_structure": "[Cl-].[Cl-].[Pt+2].[Se]=C1NCCCCN1.[Se]=C1NCCCCN1.[Se]=C1NCCCCN1.[Se]=C1NCCCCN1", "IC50": "> 50 µM"}
{"compound_structure": "CC(C)N1CCNC1=[Se].CC(C)N1CCNC1=[Se].CC(C)N1CCNC1=[Se].CC(C)N1CCNC1=[Se].[Cl-].[Cl-].[Pt+2]", "IC50": "44.7 µM"}

QUERY: Could you please provide reported IC50 for CCN1CCNC1=[Se].CCN1CCNC1=[Se].CCN1CCNC1=[Se].CCN1CCNC1=[Se].[Cl-].[Cl-].[Pt+2] ? Thanks!
RESULT: > 50 µM

QUERY: Could you please provide reported IC50 for [Cl-].[Cl-].[Pt+2].[Se]=C1NCCN1.[Se]=C1NCCN1.[Se]=C1NCCN1.[Se]=C1NCCN1 ? Thanks!
RESULT: > 50 µM

QUERY: Could you please provide reported IC50 for [Cl-].[Cl-].[Pt+2].[Se]=C1NCCCN1.[Se]=C1NCCCN1.[Se]=C1NCCCN1.[Se]=C1NCCCN1 ? Thanks!
RESULT: > 50 µM
